test system: CCRIS mutagenicity, Ames/micronucleus/aberration tests; assay: CCRIS mutagenicity studies; settings: Test System: AMES SALMONELLA TYPHIMURIUM; Strain/Indicator: TA100; Metabolic Activation: NONE; Method: STANDARD PLATE
The source made the active and inactive calls. No rule for the calls is given here.
Pick one: true (1) (active), false (0) (inactive)

compound | assay target | class
CCOP(=O)(NC(C)C)Oc1ccccc1C(=O)OC(C)C (configuration not stated) | CCRIS mutagenicity, Ames/micronucleus/aberration tests | false (0)
COc1cc(CNC(=O)CCCC/C=C/C(C)C)ccc1O | CCRIS mutagenicity, Ames/micronucleus/aberration tests | false (0)
CN(C)P(=O)(N(C)C)N(C)C | CCRIS mutagenicity, Ames/micronucleus/aberration tests | false (0)
CP1(C)=NP(C)(C)=NP(C)(C)=N1 | CCRIS mutagenicity, Ames/micronucleus/aberration tests | false (0)
CC/C=C/C=C/C=C/C=C/C=C/OC[C@@H](O)CO | CCRIS mutagenicity, Ames/micronucleus/aberration tests | true (1)

Ask: Check the results log: what was the call for O=C(O)/C=C(/CC(=O)O)C(=O)O ?
Result: false (0)

Ask: // outcome(item) with item = CCOc1cc(N=Nc2ccc(N(CCO)CCO)cc2)ccc1N=Nc1c(S(=O)(=O)O)cc2ccc(N)cc2c1O
Result: false (0)

----------
tested on: CCRIS mutagenicity, Ames/micronucleus/aberration tests; experiment: CCRIS mutagenicity studies; conditions: Test System: AMES SALMONELLA TYPHIMURIUM; Strain/Indicator: TA1535; Metabolic Activation: NONE; Method: STANDARD PLATE
Activity calls are given as the source filed them. The rule behind the calls is not given here.
Parameter call: string, one of 1.0 = active, 0.0 = inactive

Below are worked cases with known answers.
molecule | class
O=C(/C=N/O)Nc1ccccc1 | 0.0
CCCCCCCCSCn1cc[n+](C)c1 | 0.0
FC(F)C(F)(F)F | 0.0
Cc1ccc(N=Nc2ccc(N(CCO)CCO)cc2)cc1 | 0.0
C1COCO1 | 0.0
CCOC(=O)C(Cl)C(C)=O (configuration not stated) | 0.0
CCOS(=O)(=O)OCC | 1.0
Fc1c(F)c(F)c(Cl)c(F)c1F | 0.0

Ask: GET /call?item= C[C@]12CC[C@H](OC(=O)COc3ccc(N(CCCl)CCCl)cc3)C[C@@H]1CC[C@@H]1[C@@H]2CC[C@]2(C)NC(=O)CC[C@@H]12 returns the recorded outcome of this test.
Result: 1.0

Ask: Identify the outcome logged in this assay for the molecule shown: CCOC(=O)c1cccc2cccnc12
Result: 0.0

Ask: Each molecule tested received a call. Report the one for O=S(=O)(Nc1cccc(Cl)c1)c1cccc2cccnc12 .
Result: 0.0

Ask: Could you please tell me the result logged for CC(C)(c1ccc(OCC(O)CO)cc1)c1ccc(OCC(O)CO)cc1 (configuration not stated) in this assay?
Result: 0.0

----------
System: CCRIS mutagenicity, Ames/micronucleus/aberration tests
Experiment: CCRIS mutagenicity studies
Conditions: Test System: AMES SALMONELLA TYPHIMURIUM; Strain/Indicator: TA97; Metabolic Activation: RAT, LIVER, S-9, AROCLOR 1254 (10%); Method: PREINCUBATION
Source text: The CCRIS database contains chemical records with carcinogenicity, mutagenicity, tumor promotion, and tumor inhibition test results. It was developed by the National Cancer Institute (NCI). Data are derived from studies cited in primary journals, current awareness tools, NCI reports, and other sources. Test results have been reviewed by experts in carcinogenesis and mutagenesis. CCRIS provides historical information from the years 1985 - 2011. It is no longer updated. […]
The source made the active and inactive calls. The rule behind the calls is not given here.
Outcome (select one): active, inactive

Ask: Short answer needed: outcome of this test for CCCCCCCCCCCC(=O)O ?
Result: inactive

Ask: Called result for CCCCC(CC)CNCC(CC)CCCC (stereo not given)
Result: inactive

Ask: // outcome(item) with item = Oc1ccc2ccccc2c1N=Nc1ccccc1
Result: active
